Please go through the items and note down their kon.
Molecular target: T1, mfPRLR.mmh (soluble monomeric macaca fascicularis PRLR) (macaca fascicularis)
T1 construct: soluble monomeric PRLR protein; also called macaca fascicularis (mf) PRLR.mmh; monkey PRLR
T1 chain: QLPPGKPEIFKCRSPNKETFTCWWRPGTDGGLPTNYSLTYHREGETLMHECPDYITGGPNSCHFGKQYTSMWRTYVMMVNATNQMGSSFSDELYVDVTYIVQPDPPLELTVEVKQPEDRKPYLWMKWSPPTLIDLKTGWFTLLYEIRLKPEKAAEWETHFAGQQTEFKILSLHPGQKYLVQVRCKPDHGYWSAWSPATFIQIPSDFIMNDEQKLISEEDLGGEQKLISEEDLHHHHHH
Assay: SPR (Biacore), antibody capture, 37 C
One number for each entry, in M⁻¹ s⁻¹.

Specify measured kon for H1H6959N2 (antibody, human IgG1, V domains shown, also called H2M6959N2) VH: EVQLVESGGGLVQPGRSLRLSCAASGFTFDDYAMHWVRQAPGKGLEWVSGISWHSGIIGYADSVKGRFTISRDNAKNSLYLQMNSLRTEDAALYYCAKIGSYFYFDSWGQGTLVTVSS VL: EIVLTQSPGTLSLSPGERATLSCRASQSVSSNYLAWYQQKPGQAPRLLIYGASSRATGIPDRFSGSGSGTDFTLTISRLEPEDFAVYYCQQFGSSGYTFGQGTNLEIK .
44600

Specify measured kon for H1H6976N (antibody, human IgG1, V domains shown, also called H2M6976N) VH: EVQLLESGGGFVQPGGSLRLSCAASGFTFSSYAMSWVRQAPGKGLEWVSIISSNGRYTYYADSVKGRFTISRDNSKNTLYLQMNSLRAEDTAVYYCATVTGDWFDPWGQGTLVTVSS VL: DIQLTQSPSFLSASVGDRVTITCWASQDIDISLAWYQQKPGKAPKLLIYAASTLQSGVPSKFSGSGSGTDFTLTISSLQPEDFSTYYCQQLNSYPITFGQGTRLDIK .
603000

More entries:
Specify measured kon for H1H6960N (antibody, human IgG1, V domains shown, also called H2M6960N) VH: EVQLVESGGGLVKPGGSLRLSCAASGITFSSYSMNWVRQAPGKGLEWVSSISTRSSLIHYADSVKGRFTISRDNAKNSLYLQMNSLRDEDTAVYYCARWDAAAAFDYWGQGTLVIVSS VL: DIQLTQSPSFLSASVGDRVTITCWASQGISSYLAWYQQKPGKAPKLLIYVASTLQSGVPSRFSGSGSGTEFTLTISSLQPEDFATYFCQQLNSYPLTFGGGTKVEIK .
86400
